binders and their reported kon
Target: T1, serum purified human Complement Factor D (human, UniProt P00746 26-253)
T1 construct: Serum purified protein flowed over the captured antibodies; also called CFD; human CFD
T1 sequence (P00746 26-253): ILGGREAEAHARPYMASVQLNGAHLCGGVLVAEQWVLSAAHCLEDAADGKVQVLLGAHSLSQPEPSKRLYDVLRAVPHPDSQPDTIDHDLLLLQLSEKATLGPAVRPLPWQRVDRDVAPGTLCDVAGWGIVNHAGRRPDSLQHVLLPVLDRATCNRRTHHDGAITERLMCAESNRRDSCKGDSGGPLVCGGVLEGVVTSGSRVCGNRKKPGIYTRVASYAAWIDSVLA
Assay: SPR Biacore, antibody on protein A chip, single cycle kinetics, 25 C;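 note: antibodies captured to roughly 70 RU on the protein A surface in HBS-EP+ running buffer, with kinetic constants derived by BIAevaluation fitting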
Respond numerically; units are M⁻¹ s⁻¹ and should not be typed.

// worked examples, kon included
>>> reading("54I59D / 50I60W101V (antibody, V domains shown, KCD119 TAF variant; full antibody captured on protein A) VH: EVQLVESGGGLVQPGGSLRLSCAASGYTFTDYYMNWVRQAPGKGLEWIGDINPITGDTDYNADFKRRFTFSLDTSKSTAYLQMNSLRAEDTAVYYCTREGPSFAYWGQGTLVTVSS VL: DIQLTQSPSSLSASVGDRVTITCRSSQTIVHSNGDTYLEWYQQKPGKAPILLIYKVSNRWSGVPSRFSGSGSGTDFTLTISSLQPEDFATYYCFQGSHVPVTFGQGTKVEIK")
"5.53e+06"
>>> reading("54V56V / 101V (antibody, V domains shown, KCD119 TAF variant; full antibody captured on protein A) VH: EVQLVESGGGLVQPGGSLRLSCAASGYTFTDYYMNWVRQAPGKGLEWIGDINPVTVDTSYNADFKRRFTFSLDTSKSTAYLQMNSLRAEDTAVYYCTREGPSFAYWGQGTLVTVSS VL: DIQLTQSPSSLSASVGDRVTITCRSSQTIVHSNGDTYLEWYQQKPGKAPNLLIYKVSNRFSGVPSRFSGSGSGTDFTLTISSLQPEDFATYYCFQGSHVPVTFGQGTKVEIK")
"5.44e+06"
>>> reading("54I59D / 32W54S101V (antibody, V domains shown, Light label printed 32W545101V, read as 32W54S101V; also called 54I59D / 32W545101V) VH: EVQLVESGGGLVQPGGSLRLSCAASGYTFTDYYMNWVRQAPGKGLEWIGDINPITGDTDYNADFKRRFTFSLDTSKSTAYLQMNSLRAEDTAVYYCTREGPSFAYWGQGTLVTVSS VL: DIQLTQSPSSLSASVGDRVTITCRSSQTIVHWNGDTYLEWYQQKPGKAPNLLISKVSNRFSGVPSRFSGSGSGTDFTLTISSLQPEDFATYYCFQGSHVPVTFGQGTKVEIK")
"7.69e+06"

Could you share which kon value was measured for 54V59D / 34D60W101V (antibody, V domains shown, KCD119 TAF variant; full antibody captured on protein A) VH: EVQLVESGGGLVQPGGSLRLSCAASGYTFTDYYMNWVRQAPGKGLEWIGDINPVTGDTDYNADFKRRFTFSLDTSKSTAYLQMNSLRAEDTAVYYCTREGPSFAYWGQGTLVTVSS VL: DIQLTQSPSSLSASVGDRVTITCRSSQTIVHSNDDTYLEWYQQKPGKAPNLLIYKVSNRWSGVPSRFSGSGSGTDFTLTISSLQPEDFATYYCFQGSHVPVTFGQGTKVEIK ? 8.8e+06

# iterate: 54V59D / 32W50I101V (antibody, V domains shown, KCD119 TAF variant; full antibody captured on protein A) VH: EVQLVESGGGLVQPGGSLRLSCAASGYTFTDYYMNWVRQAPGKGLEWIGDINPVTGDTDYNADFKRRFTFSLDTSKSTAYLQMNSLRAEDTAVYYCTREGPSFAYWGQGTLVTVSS VL: DIQLTQSPSSLSASVGDRVTITCRSSQTIVHWNGDTYLEWYQQKPGKAPILLIYKVSNRFSGVPSRFSGSGSGTDFTLTISSLQPEDFATYYCFQGSHVPVTFGQGTKVEIK 6.64e+06

What about 54I59D84T / 32W60W101V (antibody, V domains shown, KCD119 TAF variant; full antibody captured on protein A) VH: EVQLVESGGGLVQPGGSLRLSCAASGYTFTDYYMNWVRQAPGKGLEWIGDINPITGDTDYNADFKRRFTFSLDTSKSTAYLQMTSLRAEDTAVYYCTREGPSFAYWGQGTLVTVSS VL: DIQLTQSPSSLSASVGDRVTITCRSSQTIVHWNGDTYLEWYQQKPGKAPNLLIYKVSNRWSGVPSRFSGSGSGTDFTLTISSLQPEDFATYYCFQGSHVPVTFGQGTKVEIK ? 4.99e+06

Try this binder too: 34I54I59D84S / 54G101V (antibody, V domains shown, also called 34I54I59D845 / 54G101V) VH: EVQLVESGGGLVQPGGSLRLSCAASGYTFTDYYINWVRQAPGKGLEWIGDINPITGDTDYNADFKRRFTFSLDTSKSTAYLQMSSLRAEDTAVYYCTREGPSFAYWGQGTLVTVSS VL: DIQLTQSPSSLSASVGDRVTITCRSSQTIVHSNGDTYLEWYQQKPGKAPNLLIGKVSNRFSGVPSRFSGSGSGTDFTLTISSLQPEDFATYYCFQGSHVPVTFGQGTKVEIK 7.59e+06

Another binder: 54I59D / 32W54S60W101V (antibody, V domains shown, Light label printed 32W54560W101V, read as 32W54S60W101V; also called 54I59D / 32W54560W101V) VH: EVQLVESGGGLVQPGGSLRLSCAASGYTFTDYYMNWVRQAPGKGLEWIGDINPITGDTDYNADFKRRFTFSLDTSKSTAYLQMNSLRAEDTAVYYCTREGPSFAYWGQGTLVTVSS VL: DIQLTQSPSSLSASVGDRVTITCRSSQTIVHWNGDTYLEWYQQKPGKAPNLLISKVSNRWSGVPSRFSGSGSGTDFTLTISSLQPEDFATYYCFQGSHVPVTFGQGTKVEIK 6.25e+06

Record: 31S54I59D84S / 32W60W101V (antibody, V domains shown, Label printed 31S54I59D845, read as 84S; full antibody captured on protein A; also called 31S54I59D845 / 32W60W101V) VH: EVQLVESGGGLVQPGGSLRLSCAASGYTFTSYYMNWVRQAPGKGLEWIGDINPITGDTDYNADFKRRFTFSLDTSKSTAYLQMSSLRAEDTAVYYCTREGPSFAYWGQGTLVTVSS VL: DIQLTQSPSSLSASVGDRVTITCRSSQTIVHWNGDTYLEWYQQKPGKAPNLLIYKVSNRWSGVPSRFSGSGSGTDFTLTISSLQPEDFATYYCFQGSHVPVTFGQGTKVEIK 3.83e+06

Request: 31S54I59D84T / 32W60W101V (antibody, V domains shown, KCD119 TAF variant; full antibody captured on protein A) VH: EVQLVESGGGLVQPGGSLRLSCAASGYTFTSYYMNWVRQAPGKGLEWIGDINPITGDTDYNADFKRRFTFSLDTSKSTAYLQMTSLRAEDTAVYYCTREGPSFAYWGQGTLVTVSS VL: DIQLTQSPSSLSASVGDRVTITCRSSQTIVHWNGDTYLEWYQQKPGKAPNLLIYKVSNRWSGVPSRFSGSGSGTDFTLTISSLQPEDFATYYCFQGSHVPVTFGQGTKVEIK 3.83e+06

The reported numbers originate from patent US20180334496A1.
